Assay: Pharmacokinetic analysis of Nec-1f in mice (tissue PK)
Assay type: in vivo, C57BL/6 mice
Details: male, C57BL/6, mouse, plasma, intraperitoneal, 2 mg/ml, plasma; sample collection 0 min; individual mice; read-out: concentration in plasma
test-readout: concentration at 0 min (ng/mL)
Give just the number in ng/mL; leave the unit off.

Problem: // concentration at 0 min lookup, key: CN1C(=O)C(Cc2c[nH]c3c(Cl)cccc23)NC1=S (stereo not shown) [Nec-1f]
Solution: 0

----------
Assay: Pharmacokinetic analysis of Nec-1f in mice (tissue PK)
Type: in vivo, C57BL/6 mice
Settings: male, C57BL/6, mouse, plasma, intraperitoneal, 2 mg/kg, plasma; sample collection 1440 min; individual mice; read-out: concentration in plasma
test-readout: concentration at 1440 min (ng/mL)
Note: unit ng/mL is implicit; provide only the numeric part.

Problem: concentration at 1440 min lookup needed for CN1C(=O)C(Cc2c[nH]c3c(Cl)cccc23)NC1=S (stereo not shown) [Nec-1f] , thanks.
Solution: 0

----------
Experiment: Pharmacokinetic analysis of Nec-1f in mice (tissue PK)
Type: in vivo, C57BL/6 mice
Details: male, C57BL/6, mouse, heart, intraperitoneal, 2 mg/kg, heart; sample collection 480 min; individual mice; read-out: concentration in heart
test-readout: concentration at 480 min (ng/mL)
# value in ng/mL; strip the unit string

Problem: # query: concentration at 480 min of entry CN1C(=O)C(Cc2c[nH]c3c(Cl)cccc23)NC1=S (stereo not shown)
Solution: 0

----------
Assay: Pharmacokinetic analysis of Nec-1f in mice (tissue PK)
Format: in vivo, C57BL/6 mice
Settings: male, C57BL/6, mouse, liver, intraperitoneal, 2 mg/kg, liver; sample collection 1440 min; individual mice; read-out: concentration in liver
test-readout: concentration at 1440 min (ng/mL)
Your answer is read as ng/mL, so omit the unit and give the number.

Problem: For CN1C(=O)C(Cc2c[nH]c3c(Cl)cccc23)NC1=S (stereo not shown) , what is its reported concentration at 1440 min?
Solution: 0

----------
Assay: Pharmacokinetic analysis of Nec-1f in mice (tissue PK)
Format: in vivo, C57BL/6 mice
Conditions: male, C57BL/6, mouse, whole blood, intraperitoneal, 2 mg/ml, blood; sample collection 5 min; individual mice; read-out: concentration in blood
test-readout: concentration at 5 min (ng/mL)
// note: answer is a bare numeric in ng/mL

Problem: Requested field: concentration at 5 min. Item: CN1C(=O)C(Cc2c[nH]c3c(Cl)cccc23)NC1=S (stereo not shown) [Nec-1f]
Solution: 0

----------
Experiment: Pharmacokinetic analysis of Nec-1f in mice (tissue PK)
Type: in vivo, C57BL/6 mice
Conditions: male, C57BL/6, mouse, kidney, intraperitoneal, 2 mg/kg, kidney; sample collection 1440 min; individual mice; read-out: concentration in kidney
test-readout: concentration at 1440 min (ng/mL)
API: value field is a number in ng/mL; no unit string.

Problem: State the recorded concentration at 1440 min for this entry: CN1C(=O)C(Cc2c[nH]c3c(Cl)cccc23)NC1=S (stereo not shown)
Solution: 0

----------
Experiment: Pharmacokinetic analysis of Nec-1f in mice (tissue PK)
Type: in vivo, C57BL/6 mice
Conditions: male, C57BL/6, mouse, liver, intraperitoneal, 2 mg/kg, liver; sample collection 360 min; individual mice; read-out: concentration in liver
test-readout: concentration at 360 min (ng/mL)
Please reply with the bare figure in ng/mL and do not write the unit itself.

Problem: What value of concentration at 360 min has been reported for the following compound? CN1C(=O)C(Cc2c[nH]c3c(Cl)cccc23)NC1=S (stereo not shown)
Solution: 0
